- ASSAYED SYSTEM: T1R1/T1R3 receptor (Felis catus, UniProt E3UMS2)
- PROCEDURE TEXT: Activation of T1R1/T1R3 receptor by transmembrane compounds alone or with alanine, IMP, GMP, phenylalanine; HEK293 cells, calcium fluorescence (Example 5)
- Format: cell-based, cat
- APPLIED CONDITIONS: read-out: +Alanine (20 mM) + IMP (0.2 mM) EC50; +Alanine (20 mM) + IMP (0.2 mM)
EXPERIMENTAL ENDPOINT: EC50 (µM)
Report the value in µM with no unit label.

Using the record for O=C(CN1C(=O)C(=O)N(Cc2ccccc2)C1=O)c1ccccc1 , state its measured EC50. 330

----------
- ASSAYED SYSTEM: T1R1/T1R3 receptor (Felis catus)
- PROCEDURE TEXT: Activation of T1R1/T1R3 receptor by transmembrane compounds alone or with alanine, IMP, GMP, phenylalanine; HEK293 cells, calcium fluorescence (Example 5)
- Format: cell-based, cat
- APPLIED CONDITIONS: +Alanine (20 mM)
EXPERIMENTAL ENDPOINT: +Alanine (20 mM) Max resp % of IMP

• CCC(CC)NC(=O)c1ccc(Br)o1 = 126.8 % of IMP
• CCCC(C)NC(=O)c1ccc(OC)c(C)c1 (stereo not drawn) = 126.0 % of IMP
• CCC(CC)NC(=O)c1ccc(C)c(C)c1 = 97.8 % of IMP
• O=C(Nc1ccccc1Br)N[C@@H]1c2ccccc2C[C@@H]1O (stereo in doubt) = 33.0 % of IMP
• CCC(CC)NC(=O)c1ccc(OC)c(OC)c1 [3,4-dimethoxy-N-(pentan-3-yl)benzamide] = 43.9 % of IMP

Kindly indicate its recorded +Alanine (20 mM) Max resp % of IMP. Item: O=C(NCCc1ccccc1)C(=O)NCc1cccnc1 30.2 % of IMP

Specify reported +Alanine (20 mM) Max resp % of IMP for the compound shown: COc1ccc(C(=O)NC(C)c2ccccc2)cc1C (stereo not drawn) 41.0 % of IMP

Identify measured +Alanine (20 mM) Max resp % of IMP associated with CCC(CC)NC(=O)c1ccc2c(c1)OCCO2 25.2 % of IMP

Quote +Alanine (20 mM) Max resp % of IMP reported for COC(=O)C(NC(=O)/C=C/c1cccs1)C(C)C (stereo not drawn) please. 9.5 % of IMP

Annotate the compound CCOC(=O)C(NC(=O)c1ccc2c(c1)OCO2)C(C)C (stereo not drawn) with its measured +Alanine (20 mM) Max resp % of IMP. 25.6 % of IMP

Answer with the recorded +Alanine (20 mM) Max resp % of IMP of O=C(CN1C(=O)C(=O)N(Cc2ccccc2)C1=O)c1ccccc1 only. 127.6 % of IMP

Quick one: give measured +Alanine (20 mM) Max resp % of IMP for CCCC(C)NC(=O)/C=C/c1ccc(OC)c(OC)c1 (stereo not drawn) 35.2 % of IMP

Write down +Alanine (20 mM) Max resp % of IMP measured for item CC1CCCC(NC(=O)c2ccc3c(c2)OCO3)C1C (stereo not drawn) 18.1 % of IMP

State its +Alanine (20 mM) Max resp % of IMP: CCC(CC)NC(=O)/C=C/c1ccc(OC)cc1 64.1 % of IMP

Dear colleague, please send me the reported +Alanine (20 mM) Max resp % of IMP for COc1ccc(/C=C/C(=O)NC2CCCCC2C)cc1 (stereo not drawn) when you can. 63.2 % of IMP
